# MEASUREMENT_NOTES: Solubility in EtOAc/heptane mixtures by HPLC
# Format: physicochemical
# COND: organic solvent or mixture, thermodynamic from solid; EtOAc/heptane 20:80 (% v/v), 45° C.
PARAMETER: solubility (µg/mL)
Please state the figure in µg/mL; there is no need to write the unit.

The compound identified as O=C1N[C@H](c2cncc(C#Cc3ccccc3)c2)[C@@H](c2ccccc2Cl)O1 [Compound 1] registered its solubility at 3000

###

PARAMETER: pIC50
Lab note: report pIC50 as minus log10 of the concentration in molar units, number only.

Entry O=C1N[C@H](c2cncc(C#Cc3ccccc3)c2)[C@@H](c2ccccc2Cl)O1 [Compound 1 Form A] ; assay system CYP2C19 (Homo sapiens); pIC50 recorded at 5.21

###

# TESTED_TARGET: CYP1A2 (Homo sapiens)
# Sequence (P05177 1-516): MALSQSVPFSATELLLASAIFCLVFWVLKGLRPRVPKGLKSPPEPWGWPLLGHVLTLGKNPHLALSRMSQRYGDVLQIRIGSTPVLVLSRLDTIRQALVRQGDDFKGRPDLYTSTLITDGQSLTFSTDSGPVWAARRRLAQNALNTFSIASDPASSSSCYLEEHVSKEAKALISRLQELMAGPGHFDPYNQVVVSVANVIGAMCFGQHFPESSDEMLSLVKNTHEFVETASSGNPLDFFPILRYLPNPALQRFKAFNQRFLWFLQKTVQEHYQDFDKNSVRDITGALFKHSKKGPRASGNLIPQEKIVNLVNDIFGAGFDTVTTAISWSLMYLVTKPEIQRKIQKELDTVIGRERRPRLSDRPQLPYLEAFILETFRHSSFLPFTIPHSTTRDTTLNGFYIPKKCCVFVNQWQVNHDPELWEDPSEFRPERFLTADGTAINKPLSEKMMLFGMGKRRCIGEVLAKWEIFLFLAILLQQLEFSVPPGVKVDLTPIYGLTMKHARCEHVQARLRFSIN
PARAMETER: IC50 (nM)
Give a bare numeral; the unit nM is implied.

The compound listed as O=C1N[C@H](c2cncc(C#Cc3ccccc3)c2)[C@@H](c2ccccc2Cl)O1 [Compound 1 Form A] has a reported IC50 of 1950

###

# TESTED_TARGET: CYP1A2 (Homo sapiens, UniProt P05177)
# Construct: purchased
# MEASUREMENT_NOTES: CYP450 reaction phenotyping in Supersomes, CYP1A2
# Format: in vitro ADME
# COND: human, Supersomes over-expressing human CYP1A2; Supersomes, CYP1A2
PARAMETER: half-life (h)
Give your result in h as a bare value.

The molecule listed as O=C1N[C@H](c2cncc(C#Cc3ccccc3)c2)[C@@H](c2ccccc2Cl)O1 [Compound 1 Form A] shows half-life equal to 1.07

###

# MEASUREMENT_NOTES: Solubility in EtOAc/heptane mixtures by HPLC
# Assay type: physicochemical
# COND: organic solvent or mixture, thermodynamic from solid; EtOAc/heptane 50:50 (% v/v), 45° C.
PARAMETER: solubility (mg/mL)
Your answer should be a plain number; it is taken to be in mg/mL.

Reported solubility for O=C1N[C@H](c2cncc(C#Cc3ccccc3)c2)[C@@H](c2ccccc2Cl)O1 [Compound 1] was 34

###

# MEASUREMENT_NOTES: Solubility in EtOAc/heptane mixtures by HPLC
# Type: physicochemical
# COND: organic solvent or mixture, thermodynamic from solid; EtOAc/heptane 90:10 (% v/v), 20° C.
PARAMETER: solubility (mg/mL)
Numeric only. Scale: mg/mL

Lookup result for O=C1N[C@H](c2cncc(C#Cc3ccccc3)c2)[C@@H](c2ccccc2Cl)O1 [Compound 1] ; measured solubility: 95
